# Experimental Target: Recombinant Human Siglec-3/CD33 protein (His-CD33) (Homo sapiens (Human), UniProt P20138)
# Sequence (P20138 18-259): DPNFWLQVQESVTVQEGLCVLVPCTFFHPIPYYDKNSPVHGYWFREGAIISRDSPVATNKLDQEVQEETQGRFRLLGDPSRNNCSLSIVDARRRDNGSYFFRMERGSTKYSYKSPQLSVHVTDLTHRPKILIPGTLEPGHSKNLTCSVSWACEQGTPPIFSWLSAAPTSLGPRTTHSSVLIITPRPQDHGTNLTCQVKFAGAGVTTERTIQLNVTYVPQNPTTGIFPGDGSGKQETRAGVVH
# Assay Text: Differential scanning fluorimetry (DSF) thermal shift assay
# Assay type: binding
# Test Context: thermal melt shift of 0.5 μM CD33 protein with 50 μM compound
Experimental Endpoint: DSF (dTmD)

Below are worked cases with known answers.
compound_string=CC(=O)N[C@H]1[C@H]([C@H](O)[C@H](O)CNC(=O)c2ccc(C(F)(F)F)c(C)c2)O[C@@](CCN2CCOC[C@@]23CCN(C(=O)OC(C)(C)C)C3)(C(=O)O)C[C@@H]1O experimental_endpoint="DSF (dTmD)" test_value=11.0
compound_string=CNC(=O)c1c(C)cc(C(=O)NC[C@@H](O)[C@@H](O)[C@@H]2O[C@@](CCN3CCOC[C@@]34CCN(C(=O)OC(C)(C)C)C4)(C(=O)O)C[C@H](O)[C@H]2NC(C)=O)cc1C experimental_endpoint="DSF (dTmD)" test_value=5.3
compound_string=CC(=O)N[C@H]1[C@H]([C@H](O)[C@H](O)CNC(=O)c2ccc(F)c(Br)c2)O[C@@](CCN2CCOC[C@@]23CCN(C(=O)OC(C)(C)C)C3)(C(=O)O)C[C@@H]1O experimental_endpoint="DSF (dTmD)" test_value=12.4

A: CC(=O)N[C@H]1[C@H]([C@H](O)[C@H](O)CNC(=O)c2ccc3nsnc3c2)O[C@@](CCN2CCOC[C@@]23CCN(C(=O)OC(C)(C)C)C3)(C(=O)O)C[C@@H]1O
B: CC(=O)N[C@H]1[C@H]([C@H](O)[C@H](O)CNC(=O)c2cn(C)nc2C(F)(F)F)O[C@@](CCN2CCOC[C@@]23CCN(C(=O)OC(C)(C)C)C3)(C(=O)O)C[C@@H]1O
Problem: Smaller DSF (dTmD) value? Options are A and B Reply with the label of the item you choose.
Result: B
(B: 6.6, A: 10.1)

====

# Experimental Target: Recombinant human CD33 protein (Homo sapiens (Human))
# Assay Text: CD33 competitive binding assay for HTS drug screen (fluorescent multivalent sialic acid probe)
Experimental Endpoint: EC50 (µM)

compound=Cc1cc(C(=O)NC[C@@H](O)[C@@H](O)[C@@H]2O[C@@](C/C=C/c3cccc(CNC(=O)CC4CCOCC4)c3)(C(=O)O)C[C@H](O)[C@H]2NC(=O)Cn2cc(C3CCCCC3)nn2)cc(C)c1O experimental_endpoint=EC50 test_value=4.7

A: Cc1cc(C(=O)NC[C@@H](O)[C@@H](O)[C@@H]2O[C@@](OC3CCCCC3NC(=O)Cn3cc(CNC(=O)c4cccc(C#N)c4)nn3)(C(=O)O)C[C@H](O)[C@H]2NC(=O)Cn2cc(C3CCCCC3)nn2)cc(C)c1O (some centres unmarked)
B: CC(=O)N[C@H]1[C@H]([C@H](O)[C@H](O)CNC(=O)c2cc(Cl)c(F)c(Cl)c2)O[C@@](CCN2CCOC[C@@]23CCN(C(=O)OC(C)(C)C)C3)(C(=O)O)C[C@@H]1O
C: Cc1cc(C(=O)NCC(O)C[C@@H]2O[C@@](CCN3CCOC[C@@]34CCN(C(=O)OC(C)(C)C)C4)(C(=O)O)CCC2C)cc(C)c1O (single isomer, unassigned) [A-213]
D: CC(=O)N[C@H]1[C@H]([C@H](O)[C@H](O)CNC(=O)c2cc(C)c(O)c(C)c2)O[C@@](C/C=C/c2cccc(CNC(=O)c3ccc(NC(C)(C)C)cc3)c2)(C(=O)O)C[C@@H]1O
Problem: In this exercise, place the 4 compounds in ascending sequence of their recorded EC50. Your answer should be the labels, listed in the requested order.
Result: B, D, A, C

====

# Experimental Target: Recombinant human CD33 protein (Homo sapiens (Human), UniProt P20138)
# Sequence (P20138 18-259): as above
# Assay Text: CD33 competitive binding assay for HTS drug screen (fluorescent multivalent sialic acid probe)
pEC50: −log10 of the molar value.
Experimental Endpoint: pEC50

compound="CC(=O)N[C@H]1[C@H]([C@H](O)[C@H](O)CNC(=O)c2cc(C)c(O)c(C)c2)O[C@@](CC(O)[C@@H](O)c2cccc(NC(=O)CC(C)(C)C)c2)(C(=O)O)C[C@@H]1O (some centres unmarked) [A-304]" test_value=5.33

1: CCN(CC)C(=O)N1CC[C@@]2(COCCN2CC[C@]2(C(=O)O)C[C@H](O)[C@@H](NC(C)=O)[C@H]([C@H](O)[C@H](O)CNC(=O)c3cc(C)c(O)c(C)c3)O2)C1 [A-066]
2: Cc1cc(C(=O)NC[C@@H](O)[C@@H](O)[C@@H]2O[C@@](C/C=C/c3cccc(CNC(=O)c4ccc5[nH]cnc5c4)c3)(C(=O)O)C[C@H](O)[C@H]2NC(=O)Cn2cc(C3CCCCC3)nn2)cc(C)c1O [A-280]
3: CC(=O)N[C@H]1[C@H]([C@H](O)[C@H](O)CNC(=O)c2cc(C)c(O)c(C)c2)O[C@@](CCN2CCNC[C@]23CCN(C(=O)OC(C)(C)C)C3)(C(=O)O)C[C@@H]1O [A-013]
Problem: Please list the entries, largest pEC50 first. Use the labels to give the ranking in the order requested.
Result: 3, 1, 2
(3: 7.46, 1: 6.81, 2: 5.31)

====

# Experimental Target: Recombinant Human Siglec-3/CD33 protein (His-CD33) (Homo sapiens (Human), UniProt P20138)
# Assay Text: Differential scanning fluorimetry (DSF) thermal shift assay
# Type: binding
# Test Context: difference in thermal melt of CD33 protein (0.5 μM) with 50 μM compound
Experimental Endpoint: DSF (dTmD) (°C)

A: Cc1cc2cc(C)c1OCCCNC(=O)CCCCCC[C@]1(C(=O)O)C[C@H](O)[C@@H](NC(=O)Cn3cc(C4CCCCC4)nn3)[C@@H](O1)[C@H](O)[C@H](O)CNC2=O [A-345]
B: CC(=O)N[C@H]1[C@H]([C@H](O)[C@H](O)CNC(=O)c2cc(C)c(O)c(C)c2)O[C@@](C/C=C/c2cccc(CNC(=O)c3ccc4[nH]ccc4c3)c2)(C(=O)O)C[C@@H]1O [A-234]
C: CC(=O)N[C@H]1[C@H]([C@H](O)[C@H](O)CNC(=O)c2cc(C)c(O)c(C)c2)O[C@@](CC2OC(C)(C)O[C@H]2c2cccc(C(=O)NCc3ccccc3)c2)(C(=O)O)C[C@@H]1O (stereo partly drawn) [A-311]
Problem: Exam item: list the entries in increasing order of DSF (dTmD). The labels, placed in the requested order, form the answer.
Result: C, A, B

====

# Experimental Target: Recombinant Human Siglec-3/CD33 protein (His-CD33) (Homo sapiens (Human))
# Assay Text: Differential scanning fluorimetry (DSF) thermal shift assay
# Type: binding
# Test Context: difference in thermal melt of CD33 protein (0.5 μM) with 50 μM compound
Experimental Endpoint: DSF (dTmD) (°C)

molecule="CC(=O)N[C@H]1[C@H]([C@H](O)[C@H](O)CNC(=O)c2cc(C)c(O)c(C)c2)O[C@@](C/C=C/c2cccc(CNC(=O)c3ccc(NS(C)(=O)=O)cc3)c2)(C(=O)O)C[C@@H]1O [A-239]" experimental_endpoint="DSF (dTmD)" test_value=2.2
molecule="COC(=O)[C@@]1(CCN2CCOC[C@@]23CCN(C(=O)OC(C)(C)C)C3)C[C@H](O)[C@@H](NC(C)=O)[C@H]([C@H](O)[C@H](O)CNC(=O)c2cc(C)c(O)c(C)c2)O1 [A-361]" experimental_endpoint="DSF (dTmD)" test_value=−0.3
molecule="CC(=O)N[C@H]1[C@H]([C@H](O)[C@H](O)CNC(=O)c2cc(C)c(O)c(C)c2)O[C@@](CC2OC(C)(C)O[C@H]2c2cccc3c2CN(C(=O)OC(C)(C)C)C3)(C(=O)O)C[C@@H]1O (some centres unmarked) [A-314]" experimental_endpoint="DSF (dTmD)" test_value=0.1

a: CC(=O)N[C@H]1[C@H]2O[C@](C(=O)O)(C/C=C/COC[C@@H](NC(=O)[C@H]3CCCOC3)COCCCOc3c(C)cc(cc3C)C(=O)NC[C@@H](O)[C@H]2O)C[C@@H]1O [A-337]
b: COC(=O)[C@@]1(CCN2CCOC[C@@]23CCN(C(=O)OC(C)(C)C)C3)CCC[C@H](C[C@H](O)CNC(=O)c2cc(C)c3[nH]ccc3c2)O1 [A-207]
Problem: Which value of DSF (dTmD) is numerically greater: that of a or that of b ? Your answer should be the label of the entry you select.
Result: b
(b: 5.0 °C, a: 2.2 °C)

====

# Experimental Target: Recombinant human CD33 protein (Homo sapiens (Human), UniProt P20138)
# Assay Text: CD33 competitive binding assay for HTS drug screen (fluorescent multivalent sialic acid probe)
Experimental Endpoint: EC50 (µM)

Some solved entries appear below for comparison.
molecule=CC(=O)N[C@H]1[C@H]2O[C@](C(=O)O)(C/C=C/CCC[C@@H](NC(=O)[C@H]3CCCOC3)c3cccc(c3)COc3c(C)cc(cc3C)C(=O)NC[C@@H](O)[C@H]2O)C[C@@H]1O test_value=35.4
molecule=CC(=O)N[C@H]1[C@H]([C@H](O)[C@H](O)CNC(=O)c2cc(C)c(O)c(C)c2)O[C@@](CCN2CCOC[C@@]23CCN(C(=O)NC(C)(C)c2ccccc2)C3)(C(=O)O)C[C@@H]1O test_value=0.247
molecule=Cc1cc(C(=O)NC[C@@H](O)[C@@H](O)[C@@H]2O[C@@](C/C=C/c3cccc(CNC(=O)c4ccc(Cl)cc4)c3)(C(=O)O)C[C@H](O)[C@H]2NC(=O)Cn2cc(C3CCCCC3)nn2)cc(C)c1O test_value=4
molecule=CC(=O)N[C@H]1[C@H]([C@H](O)[C@H](O)CNC(=O)c2cc3ncccn3n2)O[C@@](CCN2CCOC[C@@]23CCN(C(=O)OC(C)(C)C)C3)(C(=O)O)C[C@@H]1O test_value=0.032
molecule=CC(=O)N[C@H]1[C@H]2O[C@](C(=O)O)(C/C=C/COC[C@@H](NC(=O)[C@H]3CCCOC3)COCCCOc3c(C)cc(cc3C)C(=O)NC[C@@H](O)[C@H]2O)C[C@@H]1O test_value=14.1

1: CC(=O)N[C@H]1[C@H]([C@H](O)[C@H](O)CNC(=O)c2cn(C)nc2C(F)(F)F)O[C@@](CCN2CCOC[C@@]23CCN(C(=O)OC(C)(C)C)C3)(C(=O)O)C[C@@H]1O
2: COc1cc(C(=O)NC[C@@H](O)[C@@H](O)[C@@H]2O[C@@](CCN3CCOC[C@@]34CCN(C(=O)OC(C)(C)C)C4)(C(=O)O)C[C@H](O)[C@H]2NC(C)=O)cc(OC)c1OC
Problem: # query: argmin of EC50 over 1 and 2 # respond with the chosen item's label
Result: 2

I: CC(=O)N[C@H]1[C@H]([C@H](O)[C@H](O)CNC(=O)c2cc(C)c(O)c(C)c2)O[C@@](CCN2C[C@@H](C)OC[C@@]23CCN(C(=O)OC(C)(C)C)C3)(C(=O)O)C[C@@H]1O
II: CC(=O)N[C@H]1[C@H]([C@H](O)[C@H](O)CNC(=O)c2cc(C)c(O)c(C)c2)O[C@@](CCN2CCOC[C@]23CCN(C(=O)OC(C)(C)C)C3)(C(=O)O)C[C@@H]1O
Problem: Decide: I or II , by lowest recorded EC50. // output: label of the selected item
Result: I
(I: 0.098 µM, II: 1.14 µM)

A: CC(=O)N[C@H]1[C@H]([C@H](O)[C@H](O)CNC(=O)c2ccc3[nH]cc(C)c3c2)O[C@@](CCN2CCOC[C@@]23CCN(C(=O)OC(C)(C)C)C3)(C(=O)O)C[C@@H]1O
B: Cc1cc(C(=O)NC[C@@H](O)[C@@H](O)[C@@H]2O[C@@](C/C=C/c3cccc(CNC(=O)c4ccc5[nH]ccc5c4)c3)(C(=O)O)C[C@H](O)[C@H]2NC(=O)Cn2cc(C3CCCCC3)nn2)cc(C)c1O
C: CC(=O)N[C@H]1[C@H]([C@H](O)[C@H](O)CNC(=O)c2cc(C)c(O)c(C)c2)O[C@@](CCN2CCOC[C@@]23CCN(C(=O)Nc2ccc(C)cc2)C3)(C(=O)O)C[C@@H]1O
D: CC(=O)N[C@H]1[C@H]([C@H](O)[C@H](O)CNC(=O)c2cc(C)c(O)c(C)c2)O[C@@](CCN2CCOC[C@@]23CCN(C(=O)c2ccccn2)C3)(C(=O)O)C[C@@H]1O
E: CC(=O)N[C@H]1[C@H]([C@H](O)[C@H](O)CNC(=O)c2cc(C)c(O)c(C)c2)O[C@@](C/C=C/c2cccc(CNC(=O)C3(C)COC3)c2)(C(=O)O)C[C@@H]1O
Problem: Kindly order the items shown according to EC50, from the highest value down. Answer by writing out the labels in the requested order.
Result: E, D, B, C, A
(E: 9.56 µM, D: 5.26 µM, B: 1.74 µM, C: 0.147 µM, A: 0.022 µM)

a: Cc1cc(C(=O)NC[C@@H](O)[C@@H](O)[C@@H]2O[C@@](C/C=C/c3cccc(CNC(=O)OC(C)(C)C)c3)(C(=O)O)C[C@H](O)[C@H]2NC(=O)Cn2cc(C3CCCCC3)nn2)cc(C)c1O
b: CC(=O)N[C@H]1[C@H]([C@H](O)[C@H](O)CNC(=O)c2cc(C)c(O)c(C)c2)O[C@@](CCN2CCN(C)C[C@]23CCN(C(=O)NC(C)(C)C)C3)(C(=O)O)C[C@@H]1O
Problem: Which has the smaller recorded EC50, a or b ? Choose, then provide that item's label.
Result: b

P: Cc1cc(C(=O)NC[C@@H](O)[C@@H](O)[C@@H]2O[C@@](C/C=C/c3cccc(CNC(=O)c4cn[nH]c4)c3)(C(=O)O)C[C@H](O)[C@H]2NC(=O)Cn2cc(C3CCCCC3)nn2)cc(C)c1O
Q: CC(=O)N[C@H]1[C@H]([C@H](O)[C@H](O)CNC(=O)c2nc(C)oc2C)O[C@@](CCN2CCOC[C@@]23CCN(C(=O)OC(C)(C)C)C3)(C(=O)O)C[C@@H]1O
Problem: Which value of EC50 is numerically greater: that of P or that of Q ? Please reply using the label of the selected record.
Result: P
(P: 10.2 µM, Q: 0.35 µM)

Values from patent US20250313574A1
